Cited source: patent US10030020B2

Give inhibition at 1 µM for every item shown.
Biological target: ABHD6 (Mus musculus (Mouse))
Sequence (Q8R2Y0 whole entry): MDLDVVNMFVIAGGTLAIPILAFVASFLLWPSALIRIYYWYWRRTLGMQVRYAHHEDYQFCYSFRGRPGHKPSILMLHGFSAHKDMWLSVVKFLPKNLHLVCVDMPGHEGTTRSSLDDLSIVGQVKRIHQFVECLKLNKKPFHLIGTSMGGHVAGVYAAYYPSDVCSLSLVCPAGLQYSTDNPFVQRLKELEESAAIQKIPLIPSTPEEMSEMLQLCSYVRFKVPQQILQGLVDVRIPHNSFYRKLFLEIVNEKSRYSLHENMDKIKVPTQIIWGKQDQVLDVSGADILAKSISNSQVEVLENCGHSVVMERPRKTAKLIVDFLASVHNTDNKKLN
Test: In vitro competitive activity-based protein profiling (mouse brain membrane fraction or cell lysates), ABHD6 band
Type: biochemical
Conditions: 1 μM, mouse proteome; read-out: ABHD6 % Inh 1 μM (mouse)

Would you be so kind as to report inhibition at 1 µM for each listed record?
1. CS(=O)(=O)N1CCCc2cccc(CN3CCCC34CCN(C(=O)OC(C(F)(F)F)C(F)(F)F)CC4)c21 [Example 143]
2. O=C(OC(C(F)(F)F)C(F)(F)F)N1CCC2(CCN(Cc3ccc(C(F)(F)F)cc3N3CCCCC3)C2)CC1 [Example 23]
3. O=C(OC(C(F)(F)F)C(F)(F)F)N1CCC2(CCN(Cc3c(N4CC5COCC5C4)cccc3C(F)(F)F)C2)CC1 (stereo not shown) [Example 18]
4. CC1(C)CC2(CCN(C(=O)OC(C(F)(F)F)C(F)(F)F)CC2)CN1Cc1ccc(Cl)cc1 [Example 48]
5. O=C(OC(C(F)(F)F)C(F)(F)F)N1CCC2(CCCN2Cc2cc(N3CCC3)cc(C(F)(F)F)c2)CC1 [Example 47]
6. CN1CCC(Oc2cc(C(F)(F)F)ccc2CN2CCCC23CCN(C(=O)OC(C(F)(F)F)C(F)(F)F)CC3)CC1 [Example 165]
7. O=C(OC(C(F)(F)F)C(F)(F)F)N1CCC2(CCCN2Cc2cccc3c2CN(C2CC2)CC3)CC1 [Example 148]

Return:
["< 25%", "< 25%", "25 to 75%", "≥ 75%", "< 25%", "25 to 75%", "< 25%"]
